// values below are reported Ki
Protein target, amino acids: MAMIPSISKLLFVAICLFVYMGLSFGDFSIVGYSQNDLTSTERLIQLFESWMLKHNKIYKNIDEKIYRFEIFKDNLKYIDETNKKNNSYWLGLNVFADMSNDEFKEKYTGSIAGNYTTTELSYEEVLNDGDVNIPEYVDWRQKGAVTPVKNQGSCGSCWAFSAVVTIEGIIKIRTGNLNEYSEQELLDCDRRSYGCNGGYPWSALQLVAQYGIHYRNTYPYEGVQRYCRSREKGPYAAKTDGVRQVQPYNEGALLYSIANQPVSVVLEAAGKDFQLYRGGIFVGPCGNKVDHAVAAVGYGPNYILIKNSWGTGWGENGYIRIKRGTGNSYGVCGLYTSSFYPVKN
Non-standard residues stand in square brackets, D forms with d. Residues, ends and D or L forms follow the SMILES beside them. *: point of attachment. Cbz = O=C(OCc1ccccc1)*; OBn = c1ccc(CO*)cc1; azaGly = NNC(=O)O
The answer is to be given in nM; state only the numeric part.

Compound	Ki / nM
CC[C@H](C)[C@H](NC(=O)NNC(=O)[C@H](Cc1ccccc1)NC(=O)[C@H](CC(C)C)NC(=O)[C@H](C)NC(=O)OCc1ccccc1)C(=O)N[C@H](C(=O)OC)C(C)C (Cbz-ALF[azaGly]IV-OMe)	0.12
CC[C@H](C)[C@H](NC(=O)NNC(=O)[C@@H](NC(=O)[C@H](CC(C)C)NC(=O)[C@H](CCCN=C(N)N)NC(=O)OCc1ccccc1)C(C)C)C(=O)N[C@H](C(=O)N[C@@H](Cc1c[nH]c2ccccc12)C(N)=O)C(C)C (HELM PEPTIDE1{[O=C(OCc1ccccc1)[*:2]].R.L.V.[O=C(NN[*:1])[*:2]].I.V.W.[am]}$$$$V2.0)	17
CC(C)C[C@H](NC(=O)OCc1ccccc1)C(=O)N[C@H](C(=O)NNC(=O)N[C@H](C(=O)OCc1ccccc1)C(C)C)C(C)C (Cbz-LV[azaGly]V-OBn)	6.7
CC(C)C[C@H](NC(=O)[C@H](CCCNC(=N)N)NC(=O)OCc1ccccc1)C(=O)N[C@H](C(=O)NNC(=O)N[C@H](C(=O)N[C@@H](C)C(N)=O)C(C)C)C(C)C (HELM PEPTIDE1{[O=C(OCc1ccccc1)[*:2]].R.L.V.[O=C(NN[*:1])[*:2]].V.A.[am]}$$$$V2.0)	0.56

Fill in the blank: the reported Ki of "CCOC(=O)[C@@H](NC(=O)NNC(=O)[C@H](Cc1ccccc1)NC(C)=O)C(C)C" is ____. 20

Where these numbers come from: ChEMBL document CHEMBL1136001
